Measured values drawn from patent US11225480B2 for this set.

# Experimental Target: human ME2 enzyme (Homo sapiens)
# Test Description: ME2 inhibition assay (diaphorase/resazurin coupled fluorescence)
# Assay type: biochemical
# Assay Setup: 10 μM compound concentration; read-out: Malic Enzyme 2 % inhibition (10 μM)
# Text: ME2 catalyzes the oxidative decarboxylation of malate to pyruvate with conversion of the co-factor β-NAD+ to β-NADH. In the fluorescence assay, a coupled reaction is set up where in an enzyme, Diaphorase, utilizes NADH generated by ME2, to convert the dye resazurin to a fluorescent molecule resorufin. Resorufin has a characteristic fluorescence with excitation/emission at 540/600 nm (SLAS Discov., 2017 April 1:2472555217706649). […]
Measurement Type: inhibition at 10 µM

O=C(CCc1cccc2ccccc12)N1CCN(c2ccc(O)cc2)CC1 [I.46]	> 90%

Briefly, inhibition at 10 µM measured for O=C(C(O)Cc1ccccc1)N1CCN(c2ccc(O)cn2)CC1 (stereo not drawn) [I.144] : > 90%

Briefly, inhibition at 10 µM measured for O=C(CC(c1ccccc1)c1ccccc1)N1CCN(c2ccc(O)cn2)CC1 [I.75] : 70 to 89%

Briefly, inhibition at 10 µM measured for O=C(CCc1ccccn1)N1CCN(c2ccc(O)cn2)CC1 [I.129] : 70 to 89%

Briefly, inhibition at 10 µM measured for O=C(CCc1ccc(Cl)c(Cl)c1)N1CCN(c2ccc(O)cn2)CC1 [I.79] : > 90%

Briefly, inhibition at 10 µM measured for O=C(c1ccnc(N2CCCCC2)c1)N1CCN(c2ccc(O)cc2)CC1 [I.50] : > 90%

Briefly, inhibition at 10 µM measured for O=C(c1c2ccccc2nc2ccccc12)N1CCN(c2ccc(O)cn2)CC1 [I.44] : 50 to 69%

Briefly, inhibition at 10 µM measured for O=C(Cc1c[nH]c2cc(F)ccc12)N1CCN(c2ccc(O)cn2)CC1 [I.158] : > 90%

Briefly, inhibition at 10 µM measured for O=C(c1ccc(-c2ccccc2)s1)N1CCN(c2ccc(O)cn2)CC1 [I.123] : 70 to 89%

Briefly, inhibition at 10 µM measured for CC(C)(Sc1ccccc1Br)C(=O)N1CCN(c2ccc(O)cn2)CC1 [I.162] : > 90%

Briefly, inhibition at 10 µM measured for O=C(CCC1CCCCC1)N1CCN(c2ccc(O)cn2)CC1 [I.121] : > 90%

Briefly, inhibition at 10 µM measured for O=C(CC12CC3CC(CC(O)(C3)C1)C2)N1CCN(c2ccc(O)cn2)CC1 [I.56] : 70 to 89%

Briefly, inhibition at 10 µM measured for O=C(Cc1c[nH]c2ccccc12)N1CCN(c2ccc(O)cn2)CC1 [I.62] : 70 to 89%

Briefly, inhibition at 10 µM measured for O=C(c1c[nH]c2ccccc2c1=O)N1CCN(c2ccc(O)cc2)CC1 [I.47] : > 90%

Briefly, inhibition at 10 µM measured for O=C(CNC12CC3CC(CC(C3)C1)C2)N1CCN(c2ccc(O)cn2)CC1 [I.83] : 50 to 69%

Briefly, inhibition at 10 µM measured for C=CC(=O)NC(CC(=O)N1CCN(c2ccc(O)cn2)CC1)c1ccccc1 (stereo not drawn) [I.172] : > 90%

Briefly, inhibition at 10 µM measured for O=C(c1c[nH]c2ccc(F)cc12)N1CCN(c2ccc(O)cc2)CC1 [I.156] : > 90%

Briefly, inhibition at 10 µM measured for Cc1cccc(CCC(=O)N2CCN(c3ccc(O)cn3)CC2)c1C [I.146] : > 90%

Briefly, inhibition at 10 µM measured for O=C(CCc1ccccc1)N1CCN(c2ccc(O)cn2)CC1 [I.45] : 70 to 89%

Briefly, inhibition at 10 µM measured for O=C(O)c1ccc(-c2cc(C(=O)N3CCN(c4ccc(O)cc4)CC3)cc(N3CCOCC3)n2)cc1 [I.42] : > 90%

Briefly, inhibition at 10 µM measured for O=C(c1c[nH]c2ccccc12)N1CCN(c2ccc(O)cc2)CC1 [I.2] : > 90%

Briefly, inhibition at 10 µM measured for CC(C)(CC(=O)N1CCN(c2ccc(O)cn2)CC1)c1ccccc1 [I.125] : > 90%

Briefly, inhibition at 10 µM measured for O=C(CSc1ccccc1Br)N1CCN(c2ccc(O)cc2)CC1 [I.151] : > 90%

Briefly, inhibition at 10 µM measured for O=C(Cc1c[nH]c2cc(F)c(F)cc12)N1CCN(c2ccc(O)cn2)CC1 [I.160] : > 90%

###

In this section, each of the molecules is paired with its reported inhibition at 10 µM.
# Experimental Target: human ME2 enzyme (Homo sapiens, UniProt P23368)
# Sequence (P23368 19-584): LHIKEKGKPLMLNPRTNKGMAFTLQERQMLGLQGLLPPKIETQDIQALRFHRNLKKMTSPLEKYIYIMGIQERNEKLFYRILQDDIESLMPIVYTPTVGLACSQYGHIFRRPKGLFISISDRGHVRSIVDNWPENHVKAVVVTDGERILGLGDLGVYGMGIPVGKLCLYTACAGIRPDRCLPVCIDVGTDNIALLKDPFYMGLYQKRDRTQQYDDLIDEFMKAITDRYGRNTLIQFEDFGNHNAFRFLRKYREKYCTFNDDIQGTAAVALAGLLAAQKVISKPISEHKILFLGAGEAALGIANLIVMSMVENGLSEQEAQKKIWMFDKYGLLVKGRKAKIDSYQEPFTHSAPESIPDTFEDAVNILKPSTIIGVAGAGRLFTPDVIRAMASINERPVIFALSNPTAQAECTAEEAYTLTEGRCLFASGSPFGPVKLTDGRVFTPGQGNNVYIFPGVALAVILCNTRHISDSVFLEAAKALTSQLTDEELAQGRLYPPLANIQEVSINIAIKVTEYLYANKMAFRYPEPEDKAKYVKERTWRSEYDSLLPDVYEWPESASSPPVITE
# Test Description: ME2 inhibition assay (diaphorase/resazurin coupled fluorescence)
# Assay type: biochemical
# Assay Setup: 10 μM compound concentration; read-out: Malic Enzyme 2 % inhibition (10 μM)

Example entries begin here.
O=C(CCc1cc2ccccc2s1)N1CCN(c2ccc(O)cn2)CC1	> 90%
O=C(C(c1ccccc1)c1ccccc1)N1CCN(c2ccc(O)cn2)CC1	70 to 89%
O=C(CSc1ccc(F)cc1)N1CCN(c2ccc(O)cn2)CC1	> 90%

Note to self: inhibition at 10 µM of O=C(CCc1c[nH]c2ccccc12)N1CCN(c2ccc(O)cn2)CC1 with human ME2 enzyme (Homo sapiens, UniProt P23368) was 70 to 89%

###

In this section, each of the molecules is paired with its reported inhibition at 10 µM.
# Experimental Target: human ME1 enzyme (Homo sapiens)
# Test Description: ME1 inhibition assay (diaphorase/resazurin coupled fluorescence)
# Format: biochemical
# Assay Setup: 10 μM compound concentration; read-out: Malic Enzyme 1 % inhibition (10 μM)

Cc1cccc(CCC(=O)N2CCN(c3ccc(O)cn3)CC2)c1C	> 90%
O=C(CCc1ccccc1)N1CCN(c2ccc(O)cn2)CC1	> 90%
O=C(c1c[nH]c2ccccc2c1=O)N1CCN(c2ccc(O)cc2)CC1	> 90%
CC(CC(=O)N1CCN(c2ccc(O)cn2)CC1)c1ccccc1 (stereo not shown)	> 90%
O=C(CCc1ccc(F)cc1F)N1CCN(c2ccc(O)cn2)CC1	> 90%
O=C(c1c2ccccc2cc2ccccc12)N1CCN(c2ccc(O)cn2)CC1	70 to 89%
O=C(CCC1CCCCC1)N1CCN(c2ccc(O)cn2)CC1	> 90%
O=C(c1cc2ccccc2oc1=O)N1CCN(c2ccc(O)cn2)CC1	70 to 89%

Briefly, inhibition at 10 µM measured for O=C(CCc1ccccc1C(F)(F)F)N1CCN(c2ccc(O)cn2)CC1 : > 90%

###

In this section, each of the compounds is paired with its reported inhibition at 10 µM.
# Experimental Target: UniProt P23368
# Test Description: ME2 inhibition assay (diaphorase/resazurin coupled fluorescence)
# Assay type: biochemical
# Assay Setup: 10 μM compound concentration; read-out: Malic Enzyme 2 % inhibition (10 μM)

O=C(O)c1ccccc1CCC(=O)N1CCN(c2ccc(O)cn2)CC1 [I.141]	> 90%

Briefly, inhibition at 10 µM measured for O=C(CCc1ccc(F)c(F)c1)N1CCN(c2ccc(O)cn2)CC1 [I.153] : > 90%

Briefly, inhibition at 10 µM measured for Cc1cc(N2CCN(C(=O)Cc3ccccc3)CC2)ccc1O [I.52] : > 90%

###

# Experimental Target: human ME1 enzyme (Homo sapiens, UniProt P48163)
# Sequence (P48163 whole entry): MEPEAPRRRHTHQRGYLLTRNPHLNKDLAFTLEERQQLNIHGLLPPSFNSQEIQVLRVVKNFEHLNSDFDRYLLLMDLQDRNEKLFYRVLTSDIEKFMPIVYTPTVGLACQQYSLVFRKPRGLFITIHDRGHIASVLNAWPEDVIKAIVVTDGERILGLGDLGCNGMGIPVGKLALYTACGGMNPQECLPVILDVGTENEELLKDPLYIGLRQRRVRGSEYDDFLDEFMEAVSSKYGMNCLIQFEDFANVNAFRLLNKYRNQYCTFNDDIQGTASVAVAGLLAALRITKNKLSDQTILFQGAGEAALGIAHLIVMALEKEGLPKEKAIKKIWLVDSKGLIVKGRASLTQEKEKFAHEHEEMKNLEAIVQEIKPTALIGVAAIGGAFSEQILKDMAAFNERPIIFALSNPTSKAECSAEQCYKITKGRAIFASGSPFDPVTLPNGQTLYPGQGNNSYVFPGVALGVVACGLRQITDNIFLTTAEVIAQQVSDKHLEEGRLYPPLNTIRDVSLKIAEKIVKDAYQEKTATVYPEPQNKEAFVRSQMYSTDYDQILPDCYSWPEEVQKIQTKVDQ
# Test Description: ME1 inhibition assay (diaphorase/resazurin coupled fluorescence)
# Type: biochemical
# Assay Setup: 10 μM compound concentration; read-out: Malic Enzyme 1 % inhibition (10 μM)
Measurement Type: inhibition at 10 µM

Note to self: inhibition at 10 µM of CC(C)(CC(=O)N1CCN(c2ccc(O)cn2)CC1)c1ccccc1 with human ME1 enzyme (Homo sapiens, UniProt P48163) was > 90%

Note to self: inhibition at 10 µM of O=C(C1Cc2ccccc2C1)N1CCN(c2ccc(O)cn2)CC1 with human ME1 enzyme (Homo sapiens, UniProt P48163) was > 90%

Note to self: inhibition at 10 µM of O=C(CCc1ccncc1)N1CCN(c2ccc(O)cn2)CC1 with human ME1 enzyme (Homo sapiens, UniProt P48163) was 70 to 89%

###

# Experimental Target: human ME1 enzyme (Homo sapiens)
# Test Description: ME1 inhibition assay (diaphorase/resazurin coupled fluorescence)
# Format: biochemical
# Assay Setup: 10 μM compound concentration; read-out: Malic Enzyme 1 % inhibition (10 μM)
# Description: ME1 catalyzes the oxidative decarboxylation of malate to pyruvate with conversion of the co-factor β-NADP+ to β-NADPH. In the fluorescence assay, a coupled reaction is set up where in an enzyme, Diaphorase, utilizes NADPH generated by ME1, to convert the dye resazurin to a fluorescent molecule resorufin. Resorufin has a characteristic fluorescence with excitation/emission at 540/600 nm (SLAS Discov., 2017 April 1:2472555217706649). […]
Measurement Type: inhibition at 10 µM

O=C(N1CCN(c2ccc(O)cn2)CC1)C(O)(c1ccccc1)C1CCCCC1 (stereo not shown)	70 to 89%
O=C(CCn1cnc2ccccc21)N1CCN(c2ccc(O)cn2)CC1	70 to 89%
O=C(CSc1ccccc1Br)N1CCN(c2ccc(O)cc2)CC1	> 90%
O=C(Cc1c[nH]c2ccc(Cl)cc12)N1CCN(c2ccc(O)cn2)CC1	> 90%
O=C(CCc1c[nH]c2ccccc12)N1CCN(c2ccc(O)cn2)CC1	70 to 89%

Briefly, inhibition at 10 µM measured for Cc1[nH]c2cc(Cl)c(Cl)cc2c1CC(=O)N1CCN(c2ccc(O)cn2)CC1 : > 90%

Briefly, inhibition at 10 µM measured for O=C(CCc1cc(F)c(F)c(F)c1)N1CCN(c2ccc(O)cn2)CC1 : > 90%

Briefly, inhibition at 10 µM measured for O=C(Cc1ccc(O)cc1)N1CCN(c2ccc(O)cc2)CC1 : > 90%

Briefly, inhibition at 10 µM measured for CC(C)(C(=O)N1CCN(c2ccc(O)cn2)CC1)c1c[nH]c2ccc(F)cc12 : > 90%

Briefly, inhibition at 10 µM measured for O=C(C1CC(c2ccccc2)C1)N1CCN(c2ccc(O)cn2)CC1 (stereo not shown) : > 90%

Briefly, inhibition at 10 µM measured for O=C(CCc1cccs1)N1CCN(c2ccc(O)cn2)CC1 : > 90%

Briefly, inhibition at 10 µM measured for O=C(CCc1cc2ccccc2s1)N1CCN(c2ccc(O)cn2)CC1 : > 90%

Briefly, inhibition at 10 µM measured for O=C(O)c1ccc(-c2cc(C(=O)N3CCN(c4ccc(O)cc4)CC3)cc(N3CCOCC3)n2)cc1 : > 90%
